# protein stability index per entry
B1: CIB1 (parent)
chain: DLSRLVNCLTGEGEDTRLSASEMK

# Variants of: B1
# procedure summary: protein stability index of a GFP-peptide fusion (GPS, HEK-293T) (PSI 1-6); higher = more stable;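 further: lentivirally expressed fusions sorted by FACS into six bins by GFP to DsRed ratio, PSI derived from sequencing read proportions per bin multiplied by bin number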
# condition description: c terminus: a fixed tail appended
Please reply with the value in numeric form only.

// worked examples, protein stability index included
[[record]]
sequence_string = "DWSRLVNCLTGEGEDTRLSASEMK"
assay_value = 2.89

[[record]]
sequence_string = "DLSRVVNCLTGEGEDTRLSASEMK"
assay_value = 4


Which protein stability index is reported for this variant? DLSRLVNCLTGEGEDTRLSAEEMK 4.15

Now give it for DLSRLVNCLTGEGEDTWLSASEMK too. 2.33

Now give it for DLSRLVNCLTGEGEDTNLSASEMK too. 2.76
